Cited source: patent US12053473B2

Molecular target: SOS1 and KRAS G12D (protein-protein interaction) (Homo sapiens, UniProt Q07889)
Experiment: KRAS::SOS1 AlphaScreen binding assay
Settings: assay buffer without EDTA (values not marked with an asterisk); read-out: IC50 (SOS1)
// values below are reported IC50
endpoint-name: IC50 (nM)

smiles | quantity-unit | test-value
Cc1nc(N[C@H](C)c2cc(N)cc(C(F)(F)F)c2)c2cc([C@H]3CC[C@H](O)CC3)ccc2n1 | nM | 8
COc1cc2nc(C)nc(N[C@H](C)c3cccc(C)c3)c2cc1O[C@H]1CCN(C(C)=O)C1 | nM | 30
COc1cc2nc(C)nc(N[C@H](C)c3cccc(C(F)(F)F)c3)c2cc1C1(O)CCN(C(C)=O)CC1 | nM | 4
COc1cc2nc(C)nc(N[C@H](C)c3cccc(C)c3)c2cc1-c1ccc(C(=O)N(C)C)nc1 | nM | 34
CC(=O)N1CC2(C1)CC(O)(c1cc(C)c3nc(C)nc(N[C@H](C)c4cccc(C(F)(F)F)c4)c3c1)C2 | nM | 26
COc1cc2nc(C)nc(N[C@H](C)c3cccc(C(F)(F)CO)c3)c2cc1O[C@H]1CCOC1 | nM | 3
Cc1nc(N[C@H](C)c2cccc(C(F)(F)F)c2)c2cc(C3(O)CCN(C(=O)N(C)C)CC3)ccc2n1 | nM | 23
Cc1nc(N[C@H](C)c2cccc(C(F)(F)F)c2)c2cc(C3CCN(CC(=O)O)CC3)ccc2n1 | nM | 11
COCC(=O)N1CCC(c2cc3c(N[C@H](C)c4cccc(C(F)(F)CO)c4)nc(C)nc3cc2OC)CC1 | nM | 2
COc1cc2nc(C)nc(N[C@H](C)c3cccc(C4(O)COC4)c3)c2cc1O[C@H]1CCOC1 | nM | 38
CCC(=O)N1CC[C@H](Oc2cc3c(N[C@H](C)c4cc(N)cc(C(F)(F)F)c4)nc(C)nc3cc2C)C1 | nM | 3
COc1cc2nc(C)nc(N[C@H](C)c3cccc(C4(O)COC4)c3)c2cc1C1CCN(C(C)=O)CC1 | nM | 18
Cc1nc(N[C@H](C)c2cc(N)cc(C(F)(F)F)c2)c2cc(O[C@H]3CCN(C(=O)C4CC4)C3)c(C)cc2n1 | nM | 4
Cc1nc(N[C@H](C)c2cccc(C(F)(F)F)c2)c2cc(C3CCOCC3)ccc2n1 | nM | 33
CC(=O)N1CCC(O)(c2cc(C)c3nc(C)nc(N[C@H](C)c4cccc(C(F)(F)F)c4)c3c2)CC1 | nM | 8
Cc1cccc([C@@H](C)Nc2nc(C)nc3cc(C)c(C4CCNCC4)cc23)c1 | nM | 46
